# Target: T1, human neuropeptide Y2 (NPY2) receptor (human, UniProt P49146 1-381)
# T1 sequence (looked up): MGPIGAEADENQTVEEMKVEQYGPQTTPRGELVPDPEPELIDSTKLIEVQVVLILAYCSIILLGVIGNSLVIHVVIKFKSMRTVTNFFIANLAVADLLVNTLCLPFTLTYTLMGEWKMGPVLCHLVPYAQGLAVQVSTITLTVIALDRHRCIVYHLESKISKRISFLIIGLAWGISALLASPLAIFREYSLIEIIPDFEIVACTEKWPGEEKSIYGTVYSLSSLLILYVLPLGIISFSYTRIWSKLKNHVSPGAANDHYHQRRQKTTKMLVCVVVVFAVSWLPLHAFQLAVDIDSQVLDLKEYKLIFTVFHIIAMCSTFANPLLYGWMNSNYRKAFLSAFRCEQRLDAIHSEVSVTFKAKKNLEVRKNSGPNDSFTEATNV
# Experiment Notes: cell-based or functional assay
Starred links: 1 amine or outer side, 2 acyl side, 3 side chain; linkers in the order of their positions; H or OH if unused. Non-standard residues stand in square brackets, D forms with d. Groups on a side chain read outwards from the residue. No end group written: not given here. *: point of attachment. C20 diacid = O=C(O)CCCCCCCCCCCCCCCCCCC(=O)*; C18 diacid = O=C(O)CCCCCCCCCCCCCCCCC(=O)*; γGlu = O=C(O)[C@H](CCC(=O)[*:2])N[*:1]; εLys = N[C@@H](CCCCN[*:1])C(=O)[*:2]; AEEA = NCCOCCOCC(=O)O; Aib = CC(C)(N)C(=O)O
Readout Type: EC50, CreLuc assay, 100% hP (nM)
Unit nM implied. Number only.

Sure, the documented EC50, CreLuc assay, 100% hP for Y[Aib]EGTFTSDYSI[Aib]LEKQAQ[Aib]AFVEWLIKGGPSSGAS[Aib]RHYYNR[Aib]TRQRY-NH2 (not fully specified (residue 28); also: TFA salt) [Compound 13] is 31.5

Record Y[Aib]EGTFTSDYSI[Aib]LEKQAQ[Aib]EFVEWLIK([AEEA-AEEA-γGlu-γGlu-γGlu-γGlu-C18 diacid])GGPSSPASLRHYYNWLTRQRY-NH2 (also: TFA salt) [Compound 56] . Reported EC50, CreLuc assay, 100% hP: 48.8

Query YXEGTFTSDYSIXLEKQAQXAFVEWLIKGGPSSPQSLRHYYNWLTRQRY (Aib at 2, 13, 20; K28 side chain: C20DA-gGlu-gGlu-gGlu-gGlu-gGlu-gGlu-eLys; C-terminal NH2) [Compound 41] yields EC50, CreLuc assay, 100% hP of 34.6

YXEGTFTSDYSIXLEKQAQXAFVQWLIKGGPESGASLRHYYNWLTRQRY (Aib at 2, 13, 20; K28 side chain: C20DA-gGlu-gGlu-gGlu-gGlu-gGlu-gGlu-eLys; C-terminal NH2) [Compound 37] yielded EC50, CreLuc assay, 100% hP of 35.5

Lab note: Y[Aib]EGTFTSDYSI[Aib]LEKQAQ[Aib]AFVEWLIKGGPESPASLRHYYNWLTRQRY-NH2 (not fully specified (residue 28); also: TFA salt) [Compound 64] gave EC50, CreLuc assay, 100% hP of 95.3

Just so you know, measured EC50, CreLuc assay, 100% hP for Y[Aib]EGTFTSDYSI[Aib]LEKQAQ[Aib]AFVEWLIK([εLys-Glu-γGlu-γGlu-γGlu-γGlu-C20 diacid])GGPSYYVSLRHYYNWLTRQRY-NH2 (also: TFA salt) [Compound 75] came out at 33.5

So, Y[Aib]EGTFTSDYSI[Aib]LEEEAQ[Aib]AFVQWLIK([εLys-εLys-γGlu-γGlu-γGlu-γGlu-γGlu-C20 diacid])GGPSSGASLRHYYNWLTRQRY-NH2 (also: TFA salt) [Compound 7] ? Its EC50, CreLuc assay, 100% hP was 36.7

The measured EC50, CreLuc assay, 100% hP associated with Y[Aib]EGTFTSDYSI[Aib]LEKQAQ[Aib]EFVEWLIK([AEEA-AEEA-γGlu-γGlu-γGlu-C18 diacid])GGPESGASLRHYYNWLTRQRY-NH2 (also: TFA salt) [Compound 81] reads 36.4

For this binder ( YXEGTFTSDYSIXLEXKAQXEFVEWLIKGGPSSGASLRHYYNWLTRQRY (Aib at 2, 13, 16, 20; K28 side chain: C20DA-gGlu-gGlu-gGlu-gGlu-gGlu-gGlu-eLys; C-terminal NH2) [Compound 24] ), measured EC50, CreLuc assay, 100% hP is 94.5

# EC50, CreLuc assay, 100% hP of YXEGTFTSDYSIXLEKQAQXAFVQWLIKGGPSYYVSLRHYYNWLTRQRY (Aib at 2, 13, 20; K28 side chain: C20DA-gGlu-gGlu-gGlu-gGlu-gGlu-gGlu-eLys; C-terminal NH2) [Compound 19] = 19.3
